# measurement-target: Ste12 (UniProt P13574)
# Sequence (P13574 whole entry): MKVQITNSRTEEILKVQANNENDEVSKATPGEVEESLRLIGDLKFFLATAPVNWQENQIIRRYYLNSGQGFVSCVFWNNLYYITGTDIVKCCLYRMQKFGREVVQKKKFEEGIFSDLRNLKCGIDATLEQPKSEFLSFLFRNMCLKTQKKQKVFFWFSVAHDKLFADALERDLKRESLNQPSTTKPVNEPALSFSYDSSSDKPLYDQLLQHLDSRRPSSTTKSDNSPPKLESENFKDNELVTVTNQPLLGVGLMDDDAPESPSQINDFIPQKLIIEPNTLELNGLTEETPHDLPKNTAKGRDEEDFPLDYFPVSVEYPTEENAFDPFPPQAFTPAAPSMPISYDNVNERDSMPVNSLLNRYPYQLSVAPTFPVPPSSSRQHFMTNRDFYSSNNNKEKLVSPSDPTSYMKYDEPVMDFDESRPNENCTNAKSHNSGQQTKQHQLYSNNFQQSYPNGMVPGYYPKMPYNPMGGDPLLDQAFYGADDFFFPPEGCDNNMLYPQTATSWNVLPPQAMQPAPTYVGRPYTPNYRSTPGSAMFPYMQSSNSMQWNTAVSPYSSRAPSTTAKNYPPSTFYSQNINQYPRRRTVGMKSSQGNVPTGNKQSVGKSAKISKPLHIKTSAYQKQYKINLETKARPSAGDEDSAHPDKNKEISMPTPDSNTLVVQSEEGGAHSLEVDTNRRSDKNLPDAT
# assay-overview: PBM E-score (8-mer binding enrichment) (E-score (-0.5 to 0.5)); higher = stronger / more preferred TF binding
# settings: protein concentration: 200 nM; construct: GST-DNA-binding domain
The full ranking holds about 33,000 sequences; the median of “E-score (-0.5 to 0.5)” is about -0.01, and the highest 2% start at about 0.26. The full list was thinned out, with the highest values kept by preference.
readout-name: PBM E-score
// keep it numeric: no unit symbol after the value

Would you please look over these solved cases?
> print(dat)
   sequence.code  experimental.value
1       AGGAGCGC             -0.0491
2       CGCCCTTA             -0.0507
3       GTCCAAAC              0.0248
4       ATAAATTA               0.255
5       ATTGCTGC            -0.00539

Request the reported PBM E-score associated with `CAAGACTG`
-0.101

Fill blank: measured PBM E-score of the sequence `ATAAATTG` is ____.
0.321

Data request, read-out PBM E-score, for `ACTGGTCT`
-0.117

PBM E-score lookup needed for `ATTCGACG` , thanks.
0.087

Field request: PBM E-score | item: `AAAAATTC`
0.224

PBM E-score for `TCACAGGA` ?
0.122

Need PBM E-score, item `GCTGGCCA`
-0.00597

Entry `ATAAATTC` : reported PBM E-score = ?
0.102

Any idea what its PBM E-score is? The sequence is `AGCGCTAC`
-0.0647

Please look up its PBM E-score: `GCCTCTAC`
-0.239

Suppose we examine the sequence `TTCTAAAA` ; what PBM E-score value has been reported?
0.292

So what does the record say about PBM E-score for `AGTCTAGC` ?
-0.223

Give the measured PBM E-score of `CACTGGAA` .
-0.101

Record request: PBM E-score value, item `AAATCTAC`
0.151

Value source: the supplement of paper PMC3334620
